Experiment: NCI Yeast Anticancer Drug Screen. Data for the mec2-1 strain (AID 157)
Details: S. cerevisiae mec2-1 strain, at 50.0 µM (retest, dose inferred, filed as 5.0), hits give high values
The panel holds about 79,000 compounds, 15% with a hit somewhere; the sample as a whole holds those more often.
Response field class: enum, chosen by comparing growth inhibition against range A (below 7%), range B (7% to below 40%), range C (40% or more)

# COMPOUND, ANSWER LABEL
measured = [
    ("CC(C)c1cc(C(C)C)c(Cl)c(Cl)c1O (tested in a mixture with another compound)", "range C"),
    ("CC(C)=CCC/C(C)=C/CC/C(C)=C/CSc1ccccc1C(=O)O", "range B"),
    ("CCN(CC)CCSCCCNc1cc(C)nc2c1ccc1c2ccc2c(NCCCSCCN(CC)CC)cc(C)nc21", "range C"),
    ("O=C(O)c1ccccc1C(=O)c1ccc2c(c1)Cc1ccccc1-2", "range A"),
    ("Nc1nc(N)c2nc(CNc3ccc(C(=O)NC(CCC(=O)O)C(=O)O)cc3)ccc2n1 (stereo unspecified)", "range B"),
    ("CC1C[N+](C)(C)C(C)C(=O)C1(c1ccccc1)c1ccccc1 (stereo unspecified)", "range A"),
    ("CCCC(/C=N/N=C(N)N)=N\\N=C(N)N", "range A"),
    ("CCCCCCCCCCCCNCC#N", "range B"),
    ("Clc1c(Cl)c(Cl)c(SC2C3CC4C(C3)C42)c(Cl)c1Cl (stereo unspecified)", "range C"),
    ("Cc1c(CCCl)c(N=[N+]=[N-])n2c(nc3ccccc32)c1C#N", "range C"),
]

###

Experiment: NCI Yeast Anticancer Drug Screen. Data for the rad50 strain (AID 155);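 note: 0% = growth of vehicle-only cultures of the same strain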
Details: S. cerevisiae rad50 strain growth inhibition; at 50.0 µM; hits give high values
Compounds without any hit were thinned out: in the full panel of roughly 79,000, 15% have a hit.

# COMPOUND, READOUT UNIT, growth inhibition
records = [
    ("CCC[N+]1=C(/C=C/c2ccc3cccnc3c2O)C(C)(C)c2ccccc21", "%", 98.8),
    ("CN(C)c1ccc(/C=C/c2ccnc3ccccc23)cc1Cl", "%", -10.1),
    ("Nc1nc(Cc2ccccc2)nc(Cc2ccccc2)c1-c1ccccc1", "%", 96.4),
    ("CC1(C)COC(c2cccc(C(O)c3ccc(Cl)cc3)c2)=N1 (stereo unspecified)", "%", 47),
    ("COC(OC)C1C2C3C=CC(C4C(=O)OC(=O)C34)C12 (stereo unspecified)", "%", 76.5),
    ("CCCC(C)C/C(C)=C\\C(C)(C)C1CC(=O)N(CC)C1=O (stereo unspecified)", "%", 20.3),
    ("COc1c(C(=O)/C(=N/Nc2ccccc2)C(C)=O)c(O)c(OC)c2occc12", "%", 45.7),
    ("CCC(C)CNCCCCCNc1cc(OC)cc2cccnc12 (stereo unspecified)", "%", 45.5),
    ("NCCNCCNCc1c2ccccc2c(CNCCNCCN)c2ccccc12", "%", 36.2),
    ("O=C1C=CC(=C(c2ccccc2)c2ccc(O)cc2)C=C1", "%", 31.3),
    ("C[C@]12CC[C@H](O)C[C@@H]1CC[C@@H]1[C@@H]2CC[C@]2(C)[C@@H](c3cc(C(F)(F)F)n[nH]3)CC[C@@H]12", "%", 89.8),
]

Sourced from PubChem BioAssay (NCI)
